Items are presented alongside their recorded solubility kinetic.
assay: SUPPLEMENTARY: Lyophilisation Solubility Assay (LYSA); format: physicochemical; conditions: read-out: Kinetic_solubility
Return type: number; implicit unit µg/mL.

// worked examples, solubility kinetic included
molecule | solubility kinetic [µg/mL]
O=C(COc1ccccc1)N1CCCC[C@@H]1c1nc(-c2ccc(Cl)nc2)cs1 | 1
COc1ccc(Cl)cc1S(=O)(=O)N1CC(C(=O)O)Oc2ccc(C(=O)Nc3ccccc3)cc21 (centres undefined) | 446

# lookup: solubility kinetic of O=C(COc1ccccc1)N1CCCC[C@@H]1c1noc(-c2cnc3[nH]cnc3c2)n1
109

# lookup: solubility kinetic of COc1ccc(Cl)cc1S(=O)(=O)Nc1cccc(C(=O)Nc2ccc(-c3nnn[nH]3)cc2)c1
25

# lookup: solubility kinetic of COc1ccc(Cl)cc1S(=O)(=O)N1COc2c(F)cc(C(=O)Nc3ccc(CC(=O)O)cc3)cc21
38

# lookup: solubility kinetic of O=C(COc1ccccc1)N1CCCC[C@@H]1c1nc(-c2ccc(=O)[nH]c2)no1
161

# lookup: solubility kinetic of COc1ccc(Cl)cc1S(=O)(=O)N1CC(C(=O)O)Cc2ccc(C(=O)Nc3ccccc3)cc21 (centres undefined)
203

====

Items are presented alongside their recorded log10 of solubility kinetic.
experiment: SUPPLEMENTARY: Lyophilisation Solubility Assay (LYSA); assay type: physicochemical; details: read-out: Kinetic_solubility
Each number you see is log10 of solubility kinetic, and the unit inside the log is µg/mL.

compound | log10 of solubility kinetic
O=C(Nc1ccc(C(=O)O)c(F)c1)c1ccc2c(c1)N(S(=O)(=O)c1cccc(C(F)(F)F)c1)CC2 | 0.95
COc1ccc(Cl)cc1S(=O)(=O)N1CCOc2c(C)cc(C(=O)Nc3ccc(C(=O)O)cc3)cc21 | 0.30
COc1ccc(Cl)cc1CN1C(=O)OC(C)(C)c2ccc(C(=O)Nc3ccc(CC(=O)O)cc3)cc21 | 1.41
Cc1cc(C)cc(S(=O)(=O)N2CC[S+]([O-])c3ccc(C(=O)Nc4ccc(C(=O)O)cc4)cc32)c1 (stereo unspecified) | 0.30
Nc1ccc(-c2noc([C@H]3CCCCN3C(=O)COc3ccccc3)n2)cn1 | 1.91

# lookup: log10 of solubility kinetic of O=C(COc1ccccc1)N1CCCCC1c1ncc(-c2cccc([N+](=O)[O-])c2)o1 (stereo unspecified)
0.60

# lookup: log10 of solubility kinetic of COc1ccc(Cl)cc1S(=O)(=O)N1COc2ccc(C(=O)Nc3nc(CC(=O)O)cs3)cc21
2.72

# lookup: log10 of solubility kinetic of O=C(COc1ccccc1)N1CCCC[C@@H]1c1noc(-c2ccc3[nH]cnc3c2)n1
1.78

# lookup: log10 of solubility kinetic of COc1ccc(Cl)cc1CN1C(=O)COc2ccc(C(=O)Nc3nc(CC(=O)O)cs3)cc21
1.53

# lookup: log10 of solubility kinetic of COc1ccc(Cl)cc1S(=O)(=O)N1CC(C)c2ccc(C(=O)Nc3ccc(C(=O)O)c(Cl)c3)cc21 (stereo unspecified)
2.72

====

Form: system (Carnitine O-palmitoyltransferase 2, mitochondrial (Rattus norvegicus, UniProt P18886)), quantity (IC50), values below.

Reported IC50 for Carnitine O-palmitoyltransferase 2, mitochondrial (Rattus norvegicus, UniProt P18886), given O=C1Nc2ccc(-c3n[nH]c([C@H]4CCCCN4C(=O)COc4ccccc4)n3)cc2CO1 ?
50.4 µM

Reported IC50 for Carnitine O-palmitoyltransferase 2, mitochondrial (Rattus norvegicus, UniProt P18886), given O=C(COc1ccccc1)N1CCCC[C@@H]1c1nc(-c2ccc(Br)s2)cs1 ?
> 100 µM

Reported IC50 for Carnitine O-palmitoyltransferase 2, mitochondrial (Rattus norvegicus, UniProt P18886), given COc1ccc(Cl)cc1S(=O)(=O)N1CCSc2ccc(C(=O)Nc3ccc(C(=O)O)cc3)cc21 ?
> 100 µM

Reported IC50 for Carnitine O-palmitoyltransferase 2, mitochondrial (Rattus norvegicus, UniProt P18886), given CN1CCN(C(=O)COc2ccccc2)[C@@H](c2nc(-c3ccc4[nH]nnc4c3)no2)C1 ?
> 100 µM

Reported IC50 for Carnitine O-palmitoyltransferase 2, mitochondrial (Rattus norvegicus, UniProt P18886), given COc1ccc(Cl)cc1S(=O)(=O)N1CCc2ccc(C(=O)Nc3ccc(C(=O)O)c(Cl)c3)cc21 ?
3.41 µM
